- System: ALOMY
- ASSAY_PROTOCOL: Herbicidal post-emergence action 1a (greenhouse pots, visual rating)
- Format: in vivo, Alopecurus myosuroides
- CONDITION_CONTEXT: Dosage 80 g/ha; rated visually about 3 weeks after treatment; 100% = plants have died, 0% = like control plants
Kindly supply the reported Post-emergence action against ALOMY in % values for the records listed here.

Any idea what its Post-emergence action against ALOMY in % is? The compound is CCOC(=O)[C@@H](C)Oc1nn(-c2cnccn2)c(-c2cncc(F)c2)c1Br [Example I-99] 80%

I'd like to know its Post-emergence action against ALOMY in %. The compound in question is COC(=O)[C@@H](C)Oc1nn(-c2cnccn2)c(-c2ccnc(F)c2)c1Br [Example I-34] 80%

Give its Post-emergence action against ALOMY in % value. Item: N#CCOC(=O)COc1nn(-c2cnccn2)c(-c2ccc(F)nc2)c1Br [Example I-65] 80%

Which measured Post-emergence action against ALOMY in % value corresponds to COC(=O)COc1nn(-c2cnccn2)c(-c2cncc(F)c2)c1Br [Example I-07] ? 90%
